Target: T1, EsCas13d, nuclease-dead (Eubacterium siraeum, UniProt B0MS50, R295A;H300A;R849A;H854A)
T1 sequence: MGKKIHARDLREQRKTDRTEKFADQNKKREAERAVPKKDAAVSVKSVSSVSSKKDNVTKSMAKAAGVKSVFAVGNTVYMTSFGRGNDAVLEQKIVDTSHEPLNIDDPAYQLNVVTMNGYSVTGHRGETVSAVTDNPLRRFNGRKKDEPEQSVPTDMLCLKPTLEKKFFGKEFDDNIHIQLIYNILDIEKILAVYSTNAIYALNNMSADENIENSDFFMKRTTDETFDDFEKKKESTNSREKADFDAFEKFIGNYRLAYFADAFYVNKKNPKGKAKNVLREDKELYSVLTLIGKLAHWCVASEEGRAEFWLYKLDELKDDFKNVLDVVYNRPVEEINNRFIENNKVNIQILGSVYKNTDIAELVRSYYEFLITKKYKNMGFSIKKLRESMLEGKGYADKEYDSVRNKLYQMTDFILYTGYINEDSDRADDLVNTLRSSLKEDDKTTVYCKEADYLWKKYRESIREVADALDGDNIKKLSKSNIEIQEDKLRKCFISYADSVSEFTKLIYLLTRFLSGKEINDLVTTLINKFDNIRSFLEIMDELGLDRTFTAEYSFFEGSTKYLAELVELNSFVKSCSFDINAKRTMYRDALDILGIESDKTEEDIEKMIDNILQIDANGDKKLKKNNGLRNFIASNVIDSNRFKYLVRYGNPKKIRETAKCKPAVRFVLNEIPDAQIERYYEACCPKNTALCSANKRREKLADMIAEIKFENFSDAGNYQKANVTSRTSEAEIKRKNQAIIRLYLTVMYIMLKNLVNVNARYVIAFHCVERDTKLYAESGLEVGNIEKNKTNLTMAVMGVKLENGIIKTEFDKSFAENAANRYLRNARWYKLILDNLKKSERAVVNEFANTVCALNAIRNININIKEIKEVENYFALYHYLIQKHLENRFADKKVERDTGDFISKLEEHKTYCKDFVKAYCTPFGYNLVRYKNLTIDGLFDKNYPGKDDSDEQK
Experiment: crRNA (strand 1, pre-loaded); Mg2+; 40 mM Tris-HCl pH 7.5, 150 mM NaCl, 6 mM MgCl2, 1 mM DTT, 0.1% Tween-20, 0.2 mg/ml BSA; 25 C; 10 min per concentration, then washed
Conditions: tags: His6-TwinStrep-SUMO cleaved; N-terminal SNAP kept (SNAP-Surface 488); label: 3' end held by stalled T7 RNA polymerase
Measurement Name: Kd (µM)
Express it in µM; write the number only.

Exercise: What measured Kd goes with target 3 A9G,U22G (mixed) RNA 1: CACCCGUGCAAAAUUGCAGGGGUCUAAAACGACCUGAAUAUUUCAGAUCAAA RNA 2: GGGAAUGGAUCCACAUCUACGAAUUCGUUGUUGAUCUGAAAUGUUCAGGUCUGCAGAUCGGAAGAGCACACGU ?
Solution: 0.0695

Exercise: Consider the binder target 1 MT 5'PFS GUA 3'PFS UAG (mixed) RNA 1: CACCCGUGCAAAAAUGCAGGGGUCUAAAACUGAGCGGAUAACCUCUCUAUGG RNA 2: GGGAAUGGAUCCACAUCUACGAAUUCGUACCAUAGAGAGGUUAUCCGCUCAUAGAGAUCGGAAGAGCACACGU and give its measured Kd.
Solution: 0.0137

Exercise: Would you mind telling me what Kd value was observed for target 2 MT 5'PFS GUC 3'PFS AGU (mixed) RNA 1: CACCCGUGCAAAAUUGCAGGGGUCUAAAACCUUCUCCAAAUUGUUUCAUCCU RNA 2: GGGAAUGGAUCCACAUCUACGAAUUCGUCAGGAUGAAACAAUUUGGAGAAGAGUAGAUCGGAAGAGCACACGU ?
Solution: 0.0165

Exercise: Using the record for target 1 insA 3' of 6,insU 3' of 4 (mixed) RNA 1: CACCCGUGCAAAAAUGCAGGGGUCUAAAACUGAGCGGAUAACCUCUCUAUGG RNA 2: GGGAAUGGAUCCACAUCUACGAAUUCGUACCAUAGAGAGGUUAUCCAGCUUCACCGAGAUCGGAAGAGCACACGU , report its Kd.
Solution: 0.0198
